From: patent US20210206877A1

# target: BACE1 endogenous to primary cortical neurons from E16.5 CD1 mice (mouse, UniProt P56818 46-501)
# Sequence (P56818 46-501): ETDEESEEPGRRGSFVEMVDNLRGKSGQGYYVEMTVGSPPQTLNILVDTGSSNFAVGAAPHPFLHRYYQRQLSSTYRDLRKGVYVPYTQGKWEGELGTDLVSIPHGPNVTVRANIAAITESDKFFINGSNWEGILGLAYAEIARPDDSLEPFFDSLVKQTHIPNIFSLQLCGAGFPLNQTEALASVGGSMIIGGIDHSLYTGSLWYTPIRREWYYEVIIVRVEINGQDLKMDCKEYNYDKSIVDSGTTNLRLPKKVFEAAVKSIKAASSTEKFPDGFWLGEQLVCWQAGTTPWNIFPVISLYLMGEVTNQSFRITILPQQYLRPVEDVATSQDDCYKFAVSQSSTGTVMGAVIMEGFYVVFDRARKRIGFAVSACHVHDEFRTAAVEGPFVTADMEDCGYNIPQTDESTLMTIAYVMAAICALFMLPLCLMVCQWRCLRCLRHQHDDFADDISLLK
# protocol: cell-based or functional assay
readout_label: max % inhibition, Abeta x-40 in mouse cortical neurons

# binder, result
rows = [
    ("5888 (antibody, V domains shown) VH: QVQLVQSGAEVKKPGSSVKVSCKASGGTFWKYAISWVRQAPGQGLEWMGNIIPGFGTANYAQKFRGRVTITADESTSTAYMELSSLRSEDTAVYYCARSGGTKYGMLDVWGQGTMVTVSS VL: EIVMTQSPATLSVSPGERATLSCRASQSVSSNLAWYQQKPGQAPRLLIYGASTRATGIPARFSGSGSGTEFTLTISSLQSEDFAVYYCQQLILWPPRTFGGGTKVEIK", "82%"),
]

Attention now shifts to the item below.
Query: Please give the measured max % inhibition, Abeta x-40 in mouse cortical neurons for this binder: 5890 (antibody, V domains shown) VH: QVQLVQSGAEVKKPGSSVKVSCKASGGTFSSYAISWVRQAPGQGLEWMGNIIPGFGTANYAQKFQGRVTITADESTSTAYMELSSLRSEDTAVYYCARSGGTKYGMLDVWGQGTMVTVSS VL: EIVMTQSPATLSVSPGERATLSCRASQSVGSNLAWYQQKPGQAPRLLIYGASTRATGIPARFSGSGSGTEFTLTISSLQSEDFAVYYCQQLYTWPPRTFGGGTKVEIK
Reply: 77%
